protocol: in vitro
run parameters: PAMPA
Description: Permeability of the compound at 50 ug/ml after 16 hrs by PAMPA
Each entry below lists one item and its recorded Papp at 16 h, 50 ug/ml value.
Number plus unit, in that order.

> print(dat)
                                   molecule  recorded.result
1  COc1cc(C2=NN(S(=O)(=O)c3ccc(C)cc3)C(c3ccc(Cl)cc3)C2)ccc1O (stereo not given)    12 ×10⁻⁶ cm/s

Challenge: // lookup Papp at 16 h, 50 ug/ml for CCn1cc(C(=O)O)c(=O)c2cc(F)c(N3CCNC(C)C3)c(F)c21 (stereo not given)
Response given: 1.24 ×10⁻⁶ cm/s

Challenge: Also, COc1cc(C2=NN(C(=S)Nc3ccccc3)C(c3ccc(Cl)cc3)C2)ccc1O (stereo not given) please.
Response given: 9.55 ×10⁻⁶ cm/s

Challenge: Also, COc1cc(C2=NNC(c3ccc(Cl)cc3)C2)ccc1O (stereo not given) please.
Response given: 13.9 ×10⁻⁶ cm/s

Challenge: Also, C[C@]12CC[C@@H]3c4ccc(O)cc4CC[C@H]3[C@@H]1CC[C@@H]2O please.
Response given: 11.8 ×10⁻⁶ cm/s

---

measured target: Amine oxidase [flavin-containing] B (Homo sapiens)
Sequence (P27338 whole entry): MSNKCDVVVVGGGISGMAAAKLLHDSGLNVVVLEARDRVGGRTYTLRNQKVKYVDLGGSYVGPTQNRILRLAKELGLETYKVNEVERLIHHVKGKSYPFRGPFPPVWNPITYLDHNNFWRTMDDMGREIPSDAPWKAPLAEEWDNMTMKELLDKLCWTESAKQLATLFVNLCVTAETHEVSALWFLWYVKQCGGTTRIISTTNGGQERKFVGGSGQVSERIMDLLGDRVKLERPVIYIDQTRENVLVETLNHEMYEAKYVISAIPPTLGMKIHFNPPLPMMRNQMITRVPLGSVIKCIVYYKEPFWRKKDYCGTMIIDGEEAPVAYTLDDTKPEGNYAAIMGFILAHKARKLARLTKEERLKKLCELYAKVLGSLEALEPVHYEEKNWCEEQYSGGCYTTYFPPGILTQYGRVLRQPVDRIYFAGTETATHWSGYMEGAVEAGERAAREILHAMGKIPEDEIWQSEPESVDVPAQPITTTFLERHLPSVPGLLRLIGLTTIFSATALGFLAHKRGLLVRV
test readout: pKi
Please note pKi is a logarithmic value: minus log10 of concentration in mol/L. Answer with that number alone.

Answered examples (3):
> print(dat)
                                   compound  test.readout  recorded.result
1  COc1cc(C2=NN(S(=O)(=O)c3ccc(C)cc3)C(c3ccc(Cl)cc3)C2)ccc1O (centres undefined)           pKi             2.22
2  COc1cc(C2=NN(C(=O)Oc3ccccc3)C(c3ccc(Cl)cc3)C2)ccc1O (centres undefined)           pKi             2.24
3  COc1cc(C2=NN(C(=S)Nc3ccccc3)C(c3ccc(Cl)cc3)C2)ccc1O (centres undefined)           pKi             2.32

Challenge: Give the reported pKi for COc1cc(C2=NN(C(=O)c3ccccc3)C(c3ccc(Cl)cc3)C2)ccc1O (centres undefined) (system: Amine oxidase [flavin-containing] B (Homo sapiens)).
Response given: 2.22

---

protocol: Cytotoxicity against human HepG2 cells assessed as cell viability at 5 uM after 24 hrs by MTT assay relative to control
Type: cell-based
run parameters: read-out: Activity
test readout: viability at 24 h, 5 µM (%)
Answer with a number only, understood to be in %.

Answered examples (4):
> print(dat)
                                   molecule             test.readout  units.label  recorded.result
1  COc1cc(C2=NN(C(=O)Oc3ccccc3)C(c3ccc(Cl)cc3)C2)ccc1O (stereo not given)  viability at 24 h, 5 µM            %             81.7
2  COc1cc(C2=NN(C(=O)c3ccccc3)C(c3ccc(Cl)cc3)C2)ccc1O (stereo not given)  viability at 24 h, 5 µM            %             86.3
3  COc1cc(C2=NN(C(=S)Nc3ccccc3)C(c3ccc(Cl)cc3)C2)ccc1O (stereo not given)  viability at 24 h, 5 µM            %             88.2
4  COc1cc(C2=NN(S(=O)(=O)c3ccc(C)cc3)C(c3ccc(Cl)cc3)C2)ccc1O (stereo not given)  viability at 24 h, 5 µM            %             79.5

Consider the record given below.
Challenge: // lookup viability at 24 h, 5 µM for COc1cc(C2=NNC(c3ccc(Cl)cc3)C2)ccc1O (stereo not given)
Response given: 94.5

---

measured target: Amine oxidase [flavin-containing] A (Homo sapiens)
Sequence (P21397 whole entry): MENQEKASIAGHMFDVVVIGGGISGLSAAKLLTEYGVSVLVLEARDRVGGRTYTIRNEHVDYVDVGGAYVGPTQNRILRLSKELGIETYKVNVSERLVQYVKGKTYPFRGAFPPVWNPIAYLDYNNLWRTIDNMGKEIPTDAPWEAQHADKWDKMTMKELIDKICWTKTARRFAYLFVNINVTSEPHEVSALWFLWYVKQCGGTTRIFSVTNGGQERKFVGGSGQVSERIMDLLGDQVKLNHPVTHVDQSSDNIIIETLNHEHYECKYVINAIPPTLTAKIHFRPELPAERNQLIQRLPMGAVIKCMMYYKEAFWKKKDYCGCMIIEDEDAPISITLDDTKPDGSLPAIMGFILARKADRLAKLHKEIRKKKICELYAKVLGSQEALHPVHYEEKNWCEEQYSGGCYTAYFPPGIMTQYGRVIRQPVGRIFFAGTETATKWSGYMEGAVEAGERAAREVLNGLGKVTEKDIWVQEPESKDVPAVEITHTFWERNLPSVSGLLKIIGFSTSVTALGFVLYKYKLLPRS
protocol: Inhibition of recombinant human MAO-A assessed as reduction in H2O2 production preincubated for 30 mins followed by p-tyramine substrate addition measured after 30 mins by amplex red reagent based fluorescence assay
pKi: −log10 of the molar value.
Lab note: compare pKi against 4. Equal or greater, write fulfilled. Smaller, write not fulfilled.

Reference set, count: 3
> print(dat)
                                   compound          label
1  COc1cc(C2=NN(C(=S)Nc3ccccc3)C(c3ccc(Cl)cc3)C2)ccc1O (stereo unspecified)      fulfilled
2  COc1cc(C2=NN(C(=O)c3ccccc3)C(c3ccc(Cl)cc3)C2)ccc1O (stereo unspecified)      fulfilled
3        NCCNC(=O)c1ccc(Cl)cn1 [LAZABEMIDE]  not fulfilled

Challenge: State whether the measured pKi reaches 4, counting equality as reaching it, for COc1cc(C2=NNC(c3ccc(Cl)cc3)C2)ccc1O (stereo unspecified)
Response given: fulfilled

Challenge: Also, COc1cc(C2=NN(S(=O)(=O)c3ccc(C)cc3)C(c3ccc(Cl)cc3)C2)ccc1O (stereo unspecified) please.
Response given: fulfilled

Challenge: Also, COc1cc(C2=NN(C(=O)Oc3ccccc3)C(c3ccc(Cl)cc3)C2)ccc1O (stereo unspecified) please.
Response given: not fulfilled

---

Each entry below lists one item and its recorded viability at 24 h, 1 µM value.
protocol: Cytotoxicity against human HepG2 cells assessed as cell viability at 1 uM after 24 hrs by MTT assay relative to control
Type: cell-based
run parameters: read-out: Activity
Answer with a number only, understood to be in %.

> print(dat)
                                   compound             test.readout  units.label  recorded.result
1  COc1cc(C2=NN(C(=O)Oc3ccccc3)C(c3ccc(Cl)cc3)C2)ccc1O (stereo not given)  viability at 24 h, 1 µM            %             93.1
2  COc1cc(C2=NN(C(=O)c3ccccc3)C(c3ccc(Cl)cc3)C2)ccc1O (stereo not given)  viability at 24 h, 1 µM            %               90
3  COc1cc(C2=NN(S(=O)(=O)c3ccc(C)cc3)C(c3ccc(Cl)cc3)C2)ccc1O (stereo not given)  viability at 24 h, 1 µM            %             91.2
4  COc1cc(C2=NNC(c3ccc(Cl)cc3)C2)ccc1O (stereo not given)  viability at 24 h, 1 µM            %               99

Challenge: // lookup viability at 24 h, 1 µM for COc1cc(C2=NN(C(=S)Nc3ccccc3)C(c3ccc(Cl)cc3)C2)ccc1O (stereo not given)
Response given: 95

---

Organism: Homo sapiens
protocol: Selectivity index, ratio of Ki for recombinant human MAO-B to Ki for recombinant human MAO-A
Each entry below lists one item and its recorded Ratio Ki value.
Answer using only a numeral; do not append any unit.

Answered examples (4):
> print(dat)
                                   molecule  recorded.result
1  COc1cc(C2=NN(S(=O)(=O)c3ccc(C)cc3)C(c3ccc(Cl)cc3)C2)ccc1O (stereo not given)              150
2  COc1cc(C2=NN(C(=O)Oc3ccccc3)C(c3ccc(Cl)cc3)C2)ccc1O (stereo not given)             29.9
3  COc1cc(C2=NN(C(=S)Nc3ccccc3)C(c3ccc(Cl)cc3)C2)ccc1O (stereo not given)              244
4  COc1cc(C2=NNC(c3ccc(Cl)cc3)C2)ccc1O (stereo not given)             1750

Consider the record given below.
Challenge: // lookup Ratio Ki for COc1cc(C2=NN(C(=O)c3ccccc3)C(c3ccc(Cl)cc3)C2)ccc1O (stereo not given)
Response given: 229
